# experimental protocol: qHTS RealTime-Glo MT Cell Viability Assay in HepG2 cells - 16 hour (AID 1224885); note: nearly all actives have a fitted effect of over 50% in size
# conditions: RealTime-Glo luminescence; series mostly up to 76.8 µM
Records with an inconclusive call do not appear. Calls of active or inactive are those of the source. Calls come from the whole dose curve; as a rule, active = well fitted cell-killing curve with a large enough effect in the repeat runs; inconclusive = weak or mixed curves; inactive = flat fitted curve, though single readings scatter.
// allowed return values: yes (1) for active, no (0) for inactive

O=[N+]([O-])c1ccc(O)c2ncccc12 :: no (0)
CCOC(=O)[C@H](O)[C@@H](O)C(=O)OCC :: no (0)
CC(C)C(=O)C(C)C :: no (0)
Cc1ccc(C=O)cc1 :: no (0)

State the result this test recorded for O=C1CCC(=O)N1 . no (0)

Record request — test call for CCN(CC)c1ccc(C=O)c(O)c1 no (0)

Check the results log: what was the call for COc1cccc(-c2ccc(/C=C\CN3CCCCCC3)cc2Cl)c1 ? yes (1)

# fetch the recorded call for CCC(O)CO (stereo not given) here no (0)

Test call, this compound: Cc1cccc(C)c1C no (0)
